Known IC50 of a selection of compounds
- TARGET_DESC: E. coli topoisomerase IV (Escherichia coli, UniProt P0AFI2+P20083)
- Construct: purchased John Innes Enterprises Ltd. (John Innes Centre, UK)
- Sequence (P0AFI2 whole entry): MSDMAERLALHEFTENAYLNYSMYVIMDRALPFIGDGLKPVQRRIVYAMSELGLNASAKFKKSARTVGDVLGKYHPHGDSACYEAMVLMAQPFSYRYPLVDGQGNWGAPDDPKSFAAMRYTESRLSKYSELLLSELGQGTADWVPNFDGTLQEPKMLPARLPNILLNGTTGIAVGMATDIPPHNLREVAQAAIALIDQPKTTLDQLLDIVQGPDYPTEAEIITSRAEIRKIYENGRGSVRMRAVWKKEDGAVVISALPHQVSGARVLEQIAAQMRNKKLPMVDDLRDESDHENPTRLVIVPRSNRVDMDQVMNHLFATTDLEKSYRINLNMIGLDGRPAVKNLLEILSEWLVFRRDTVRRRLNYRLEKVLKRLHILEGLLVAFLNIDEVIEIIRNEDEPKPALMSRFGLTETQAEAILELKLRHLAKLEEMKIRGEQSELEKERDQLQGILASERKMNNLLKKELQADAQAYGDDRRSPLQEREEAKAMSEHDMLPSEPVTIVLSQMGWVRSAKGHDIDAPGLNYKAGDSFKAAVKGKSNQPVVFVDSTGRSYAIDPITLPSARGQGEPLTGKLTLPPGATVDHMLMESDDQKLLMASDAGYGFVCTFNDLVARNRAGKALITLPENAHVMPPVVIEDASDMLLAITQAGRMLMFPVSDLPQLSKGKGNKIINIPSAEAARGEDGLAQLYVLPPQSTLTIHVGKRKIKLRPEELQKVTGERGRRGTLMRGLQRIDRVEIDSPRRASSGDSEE
- Sequence (P20083 whole entry): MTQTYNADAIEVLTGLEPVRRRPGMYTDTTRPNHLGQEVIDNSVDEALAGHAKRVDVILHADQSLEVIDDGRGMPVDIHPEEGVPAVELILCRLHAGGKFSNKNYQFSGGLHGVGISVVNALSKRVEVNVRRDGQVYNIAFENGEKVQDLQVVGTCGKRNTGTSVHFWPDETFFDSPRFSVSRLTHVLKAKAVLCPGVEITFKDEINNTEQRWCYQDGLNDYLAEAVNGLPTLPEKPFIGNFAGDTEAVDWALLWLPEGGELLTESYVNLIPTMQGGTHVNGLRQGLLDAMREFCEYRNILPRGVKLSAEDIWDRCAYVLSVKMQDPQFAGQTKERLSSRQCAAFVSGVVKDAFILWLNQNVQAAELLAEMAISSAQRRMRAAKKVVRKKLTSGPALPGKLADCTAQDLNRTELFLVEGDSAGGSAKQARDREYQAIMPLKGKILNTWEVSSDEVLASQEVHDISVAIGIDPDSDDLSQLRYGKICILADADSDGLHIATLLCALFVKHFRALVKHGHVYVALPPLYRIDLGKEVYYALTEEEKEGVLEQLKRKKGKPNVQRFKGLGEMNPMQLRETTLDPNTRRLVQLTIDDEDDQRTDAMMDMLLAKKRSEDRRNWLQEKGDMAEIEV
- EXPERIMENT_SUMMARY: Topoisomerase IV inhibition assay (relaxation)
- Assay type: biochemical
- CONDITION_INFO: E. coli topoisomerase IV relaxation, visual inspection of gels; read-out: Topoisomerase IV IC50 (converted)
REPORTED_ENDPOINT: IC50

>  <COMPOUND>
COc1ccc2nccc(-n3cc4c(n3)CCC(NC(=O)c3ccc5c(c3)NC(=O)CS5)C4)c2n1 (centres unmarked) [Example 4]

>  <TARGET_DESC>
E. coli topoisomerase IV (Escherichia coli, UniProt P0AFI2+P20083)

>  <RESULT>
514 nM

$$$$
>  <COMPOUND>
COc1ccc2nccc(-n3cc4c(n3)CCC(NCc3cc5c(cc3F)SCC(=O)N5)C4)c2c1 (centres unmarked) [Example 53]

>  <TARGET_DESC>
E. coli topoisomerase IV (Escherichia coli, UniProt P0AFI2+P20083)

>  <RESULT>
32.7 nM

$$$$
>  <COMPOUND>
COc1ccc2nccc(-n3cc4c(n3)CCC(NCc3cc5c(cc3Cl)OCCO5)C4)c2c1 (centres unmarked) [Example 103]

>  <TARGET_DESC>
E. coli topoisomerase IV (Escherichia coli, UniProt P0AFI2+P20083)

>  <RESULT>
524 nM

$$$$
>  <COMPOUND>
COc1ccc2nccc(-n3cc4c(n3)CCC(NCc3ccc5c(c3)OCCO5)C4)c2c1 (centres unmarked) [Example 50]

>  <TARGET_DESC>
E. coli topoisomerase IV (Escherichia coli, UniProt P0AFI2+P20083)

>  <RESULT>
136 nM

$$$$
>  <COMPOUND>
O=C1CSc2ccc(C(=O)NC3CCc4nn(-c5ccnc6cc(Cl)ccc56)cc4C3)cc2N1 (centres unmarked) [Example 81]

>  <TARGET_DESC>
E. coli topoisomerase IV (Escherichia coli, UniProt P0AFI2+P20083)

>  <RESULT>
> 1020 nM

$$$$
>  <COMPOUND>
COc1ccc2nccc(-n3cc4c(n3)CCN(CC(=O)c3ccc5c(c3)NC(=O)CO5)C4)c2c1 [Example 64]

>  <TARGET_DESC>
E. coli topoisomerase IV (Escherichia coli, UniProt P0AFI2+P20083)

>  <RESULT>
532 nM

$$$$
>  <COMPOUND>
O=C1CSc2ccc(C(=O)NC3CCc4nn(-c5cccc6cccnc56)cc4C3)cc2N1 (centres unmarked) [Example 31]

>  <TARGET_DESC>
E. coli topoisomerase IV (Escherichia coli, UniProt P0AFI2+P20083)

>  <RESULT>
274 nM

$$$$
>  <COMPOUND>
COc1ccc2nccc(-n3cc4c(n3)CCC(NCc3ccc5c(c3)NC(=O)CS5)C4)c2n1 (centres unmarked) [Example 41]

>  <TARGET_DESC>
E. coli topoisomerase IV (Escherichia coli, UniProt P0AFI2+P20083)

>  <RESULT>
33.9 nM

$$$$
>  <COMPOUND>
O=C1CSc2ccc(C(=O)NC3CCc4nn(-c5cccc6ccccc56)cc4C3)cc2N1 (centres unmarked) [Example 34]

>  <TARGET_DESC>
E. coli topoisomerase IV (Escherichia coli, UniProt P0AFI2+P20083)

>  <RESULT>
275 nM

$$$$
>  <COMPOUND>
COc1ccc2nccc(-n3cc4c(n3)CCC(NCc3ccc5c(n3)NC(=O)CO5)C4)c2c1 (centres unmarked) [Example 54]

>  <TARGET_DESC>
E. coli topoisomerase IV (Escherichia coli, UniProt P0AFI2+P20083)

>  <RESULT>
35 nM

$$$$
>  <COMPOUND>
COc1ccc2nccc(-n3cc4c(n3)CCC(NC/C=C/c3ccccc3)C4)c2n1 (centres unmarked) [Example 46]

>  <TARGET_DESC>
E. coli topoisomerase IV (Escherichia coli, UniProt P0AFI2+P20083)

>  <RESULT>
< 36.5 nM

$$$$
>  <COMPOUND>
COc1ccc2nccc(-n3cc4c(n3)CCC(NCc3ccc5c(c3)OC(F)(F)O5)C4)c2n1 (centres unmarked) [Example 38]

>  <TARGET_DESC>
E. coli topoisomerase IV (Escherichia coli, UniProt P0AFI2+P20083)

>  <RESULT>
537 nM

$$$$
>  <COMPOUND>
COc1ccc2nccc(-n3cc4c(n3)CCC(NC(=O)c3cnc5ccccc5n3)C4)c2n1 (centres unmarked) [Example 70]

>  <TARGET_DESC>
E. coli topoisomerase IV (Escherichia coli, UniProt P0AFI2+P20083)

>  <RESULT>
> 2210 nM

$$$$
>  <COMPOUND>
COc1ccc2nccc(-n3cc4c(n3)CCC(NC(=O)c3ccc5c(c3)NC(=O)CS5)C4)c2c1 (centres unmarked) [Example 17]

>  <TARGET_DESC>
E. coli topoisomerase IV (Escherichia coli, UniProt P0AFI2+P20083)

>  <RESULT>
257 nM

$$$$
